# System: breast cancer cells (MDA-MB-468)
# Experimental Details: Cancer cell line growth inhibition, Sulforhodamine B assay, MDA-MB-468
# Assay type: cell-based
# Test Settings: Homo sapiens, MDA-MB-468, MDA-MB-468 breast cancer cell line; read-out: Cancer Cell Line GI50 Range MDA-MB-468
# Experimental: Breast cancer cells (MDA-MB-231 and MDA-MB-468), colon cancer cells (HCT116) and ovarian cancer cells (PA-1 and OVCAR-3) were seeded (1000 to 4000 in 80 μl per well depending on the cell growth rate) into 96 well plates 24 hours before compound overlay. […] Sulforhodamine B (purchased from Sigma, Oakville, ON, Canada) is a water-soluble dye that binds to the basic amino acids of the cellular proteins. […] Absorbance is read at 570 nm. […]
Value Type: GI50

# Record Smiles, Obs Value
measured = [
    ("Cc1cc(-c2cnn3c(NCCN(C)C)cc(Oc4cccc(F)c4)nc23)ccc1C(=O)NC1CC1", "≤ 0.1 µM"),
    ("Cc1cc(-c2cnn3c(NCC4CCOCC4)cc(N[C@@H](CO)C(C)C)nc23)ccc1C(=O)NC1CC1", "0.1 to 0.5 µM"),
    ("Cc1cc(-c2cnn3c(NCCN4CCC(O)CC4)cc(Oc4cccc(F)c4)nc23)ccc1C(=O)NC1CC1", "≤ 0.1 µM"),
    ("Cc1cc(-c2cnn3c(NCC4CCOCC4)cc(N[C@@H]4CCCC[C@H]4O)nc23)ccc1C(=O)NC1CC1", "0.1 to 0.5 µM"),
    ("Cc1cc(-c2cnn3c(NCC4CCOCC4)cc(N[C@H]4CCCC[C@@H]4O)nc23)ccc1C(=O)NC1CC1", "≤ 0.1 µM"),
    ("Cc1cc(-c2cnn3c(NC[C@@H]4CCOC4)cc(N[C@H]4CCCC[C@H]4O)nc23)ccc1C(=O)NC1CC1", "≤ 0.1 µM"),
    ("Cc1cc(-c2cnn3c(NCC4CCOCC4)cc(Nc4cccnc4)nc23)ccc1C(=O)NC1CC1", "0.1 to 0.5 µM"),
]

* * *

# Tested on: colon cancer cells (HCT116)
# Experimental Details: Cancer cell line growth inhibition, Sulforhodamine B assay, HCT116
# Assay type: cell-based
# Test Settings: Homo sapiens, HCT-116, HCT116 colon cancer cell line; read-out: Cancer Cell Line GI50 Range HCT116
# Description: Breast cancer cells (MDA-MB-231 and MDA-MB-468), colon cancer cells (HCT116) and ovarian cancer cells (PA-1 and OVCAR-3) were seeded (1000 to 4000 in 80 μl per well depending on the cell growth rate) into 96 well plates 24 hours before compound overlay. […] Sulforhodamine B (purchased from Sigma, Oakville, ON, Canada) is a water-soluble dye that binds to the basic amino acids of the cellular proteins. […] Absorbance is read at 570 nm. […]
Reported GI50 values are given for each entry in this list.
Value Type: GI50

# Compound, Obs Value
measured = [
    ("Cc1cc(-c2cnn3c(NC[C@H]4CCOC4)cc(N[C@H]4CCCC[C@H]4O)nc23)ccc1C(=O)NC1CC1 [Example C35]", "≤ 100 nM"),
    ("Cc1cc(-c2cnn3c(NC[C@H]4C[C@@](C)(O)C4)cc(NC4CCCC4)nc23)ccc1C(=O)NC1CC1 [Example C44]", "≤ 100 nM"),
    ("Cc1cc(-c2cnn3c(NCC4CCOCC4)cc(N[C@H](CO)C(C)C)nc23)ccc1C(=O)NC1CC1 [Example C38]", "≤ 100 nM"),
    ("Cc1cc(-c2cnn3c(NC[C@H]4C[C@@H](O)C4)cc(NC4CCOCC4)nc23)ccc1C(=O)NC1CC1 [Example C156]", "100 to 500 nM"),
    ("Cc1cc(-c2cnn3c(NCC4CCOCC4)cc(N[C@H](C(N)=O)C(C)C)nc23)ccc1C(=O)NC1CC1 [Example C111]", "100 to 500 nM"),
    ("Cc1cc(-c2cnn3c(NC[C@H]4C[C@H](O)C4)cc(NC4CCOCC4)nc23)ccc1C(=O)NC1CC1 [Example C145]", "100 to 500 nM"),
    ("Cc1cc(-c2cnn3c(NCC4CCOCC4)cc(N[C@@H](C(C)C)C(C)(C)O)nc23)ccc1C(=O)NC1CC1 [Example C40]", "≤ 100 nM"),
]
